Reported pIC50 values follow for various molecules
tested on: AGS gastric cancer cell; test: MTT anti-proliferative assay, AGS; assay type: cell-based, human; settings: MTT, 48 h
pIC50: −log10 of the molar value.
Property: pIC50

N#C/C(=C\c1ccc(Br)cc1)c1cccc(OC(F)(F)F)c1    4.86
N#C/C(=C\c1cccs1)c1ccc(C(F)(F)F)cc1    4.19
Cc1ccc(/C=C(\C#N)c2ccc(C(F)(F)F)cc2)cc1    4.33
COc1ccc(/C(C#N)=C/c2cc(OC)c(OC)c(OC)c2)cc1    4.74
Cc1ccc(/C=C(\C#N)c2ccccc2OC(F)(F)F)cc1    5.20

----------
Reported IC50 values follow for various compounds
test system: diffuse large B-cell lymphoma SU-DHL-10 cell; assay: MTT anti-proliferative assay, SU-DHL-10; format: cell-based, human; conditions: MTT, 48 h; read-out: IC50 SU-DHL-10
Property: IC50

N#C/C(=C\c1ccc(Cl)cc1)c1cccc(OC(F)(F)F)c1    > 100 µM
COc1ccc(/C(C#N)=C/c2ccc(N(C)C)cc2)cc1    > 100 µM
Cc1cccc(/C=C(\C#N)c2ccc(OC(F)(F)F)cc2)c1    > 100 µM
N#C/C(=C\c1ccc(Oc2ccccc2)cc1)c1ccc(C(F)(F)F)cc1    > 100 µM
N#C/C(=C\c1ccc(Br)cc1)c1cccc(OC(F)(F)F)c1    35.6 µM
N#C/C(=C\c1ccc(N2CCOCC2)cc1)c1ccc(OC(F)(F)F)cc1    > 100 µM
Cc1ccc(/C=C(\C#N)c2cccc(OC(F)(F)F)c2)cc1    29.3 µM
Cc1cccc(/C=C(\C#N)c2ccc(C(F)(F)F)cc2)c1    > 100 µM
CCN(CC)c1ccc(/C=C(\C#N)c2ccc(C)cc2)cc1    42.6 µM
N#C/C(=C\c1cccc2ccccc12)c1ccc(C(F)(F)F)cc1    > 100 µM
CCN(CC)c1ccc(/C=C(\C#N)c2ccc(OC(F)(F)F)cc2)cc1    > 100 µM
CN(C)c1ccc(/C=C(\C#N)c2cccc(OC(F)(F)F)c2)cc1    > 100 µM
N#C/C(=C\c1ccc(F)cc1)c1ccc(C(F)(F)F)cc1    > 100 µM
N#C/C(=C\c1cccc2ccccc12)c1ccc(OC(F)(F)F)cc1    > 100 µM
Cc1cc(C)c(/C=C(\C#N)c2ccc(C(F)(F)F)cc2)c(C)c1    > 100 µM
Cc1cc(C)c(/C=C(\C#N)c2ccc(OC(F)(F)F)cc2)c(C)c1    > 100 µM
N#C/C(=C\c1ccc(N2CCCC2)cc1)c1ccc(OC(F)(F)F)cc1    > 100 µM
Cc1ccc(/C=C(\C#N)c2ccc(OC(F)(F)F)cc2)cc1    > 100 µM
CCCOc1ccc(/C=C(\C#N)c2cccc(OC(F)(F)F)c2)cc1    > 100 µM

----------
tested on: MGC-803 late stage differentiation gastric cancer cell; experiment: MTT anti-proliferative assay, MGC-803; format: cell-based, human; conditions: MTT, 48 h
pIC50: −log10 of the molar value.
Reported pIC50 values follow for various molecules
Property: pIC50

N#C/C(=C\c1ccc(Br)cc1)c1cccc(OC(F)(F)F)c1 [Compound 1b2d]    5.00
COc1ccc(/C=C(\C#N)c2ccccc2OC(F)(F)F)cc1 [Compound 1c2e]    5.60
N#C/C(=C\c1ccc(Br)cc1)c1ccccc1OC(F)(F)F [Compound 1c2c]    4.71
COc1ccc(/C(C#N)=C/c2ccc(N(C)C)cc2)cc1 [Compound 1e2b]    4.82
N#C/C(=C\c1ccc(N2CCOCC2)cc1)c1cccc(OC(F)(F)F)c1 [Compound 1b2i]    4.97

src = paper PMC11071649
